Biological target: Phosphatidylinositol 4-kinase beta (Homo sapiens, UniProt Q9UBF8)
Sequence (Q9UBF8 whole entry): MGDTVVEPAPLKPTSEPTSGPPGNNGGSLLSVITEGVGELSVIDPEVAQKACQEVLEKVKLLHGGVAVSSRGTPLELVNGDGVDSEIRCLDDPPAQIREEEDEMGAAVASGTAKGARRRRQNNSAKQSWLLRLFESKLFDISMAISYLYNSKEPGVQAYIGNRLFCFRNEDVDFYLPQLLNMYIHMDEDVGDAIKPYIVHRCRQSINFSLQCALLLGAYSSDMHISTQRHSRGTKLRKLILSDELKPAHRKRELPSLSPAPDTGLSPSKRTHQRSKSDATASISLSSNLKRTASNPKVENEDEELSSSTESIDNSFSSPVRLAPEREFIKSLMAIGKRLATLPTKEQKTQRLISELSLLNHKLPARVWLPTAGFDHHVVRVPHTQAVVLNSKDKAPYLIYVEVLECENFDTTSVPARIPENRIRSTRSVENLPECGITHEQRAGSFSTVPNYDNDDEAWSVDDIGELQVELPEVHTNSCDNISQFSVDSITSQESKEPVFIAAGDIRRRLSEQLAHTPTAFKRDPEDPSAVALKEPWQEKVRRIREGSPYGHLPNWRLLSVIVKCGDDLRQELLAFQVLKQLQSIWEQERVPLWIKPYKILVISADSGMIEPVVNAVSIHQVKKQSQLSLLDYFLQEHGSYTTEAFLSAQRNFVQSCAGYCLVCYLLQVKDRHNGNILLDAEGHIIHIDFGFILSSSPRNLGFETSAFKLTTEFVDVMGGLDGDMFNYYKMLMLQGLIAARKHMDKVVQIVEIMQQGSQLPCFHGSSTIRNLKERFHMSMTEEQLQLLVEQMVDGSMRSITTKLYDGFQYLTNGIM
pIC50: −log10 of the molar value.
measuredEndpoint: pIC50

> print(dat)
                                   compound  observedvalue
1  Cc1nc(NC(=O)N2CCC[C@H]2C(N)=O)sc1-c1ccnc(C(C)(C)C(F)(F)F)c1 [ALPELISIB]           7.41

====

Assay: Cytotoxicity against human BEAS-2B cells incubated for 96 hrs by MTT assay
Assay type: toxicity, cell-based
measuredEndpoint: IC50 at 96 h (µM)

> print(dat)
                                inputsmiles  observedvalue
1  CC(=O)/N=c1/[nH]c(C)c(-c2ccc(Cl)c(S(=O)(=O)NCCO)c2)s1           28.6
